Data origin, for the record: patent US12297244B2

Biological target: γ-secretase in the HeLa membrane (Homo sapiens, UniProt P05067)
Sequence (P05067 whole entry): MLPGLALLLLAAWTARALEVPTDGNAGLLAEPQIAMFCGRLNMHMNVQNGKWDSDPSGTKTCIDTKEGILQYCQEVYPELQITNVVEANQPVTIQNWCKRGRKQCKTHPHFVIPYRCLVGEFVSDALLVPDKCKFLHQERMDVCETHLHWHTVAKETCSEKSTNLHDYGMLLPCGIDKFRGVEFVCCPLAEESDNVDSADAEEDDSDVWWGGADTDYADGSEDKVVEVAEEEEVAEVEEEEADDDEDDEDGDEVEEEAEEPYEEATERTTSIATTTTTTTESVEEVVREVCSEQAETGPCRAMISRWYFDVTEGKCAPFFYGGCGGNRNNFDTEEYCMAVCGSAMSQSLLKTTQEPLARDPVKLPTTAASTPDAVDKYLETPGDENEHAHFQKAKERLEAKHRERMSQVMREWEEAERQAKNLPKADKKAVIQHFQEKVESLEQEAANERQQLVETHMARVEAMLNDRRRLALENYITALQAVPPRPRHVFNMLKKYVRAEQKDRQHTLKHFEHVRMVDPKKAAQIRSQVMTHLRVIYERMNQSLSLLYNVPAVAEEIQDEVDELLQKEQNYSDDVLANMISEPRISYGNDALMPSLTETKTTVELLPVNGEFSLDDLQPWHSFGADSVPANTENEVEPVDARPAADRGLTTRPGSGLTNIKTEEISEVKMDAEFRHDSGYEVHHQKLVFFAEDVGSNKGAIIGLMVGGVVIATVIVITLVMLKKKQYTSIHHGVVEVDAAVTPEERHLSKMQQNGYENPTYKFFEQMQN
Test: AlphaLISA γ-secretase assay with biotinylated Sb4 (APP sequence) substrate
Format: biochemical
Set-up: other: γ-secretase in HeLa membrane, Sb4 substrate; fused on or other part: Biotin label on Sb4
Conditions: γ-secretase in HeLa membrane, Sb4 substrate; read-out: IC50 for the inhibition of Aβ40 production
Description: Referring now to FIG. 1, and without wishing to be bound by theory, γ-secretase cleaves within the transmembrane domain of the amyloid precursor protein (APPTM) to release Aβ, which aggregates to form neurotoxic oligomers and fibrils. […] Formula III decreased the production of Aβ40 and Aβ42 by γ-secretase in a dose dependent manner (FIG. 2).
Measured quantity: pIC50
Just so you know, pIC50 here is -log10 of the concentration in molar units; reply with that number alone.

Q: Entry O=C(C=COc1ccc2ccccc2c1)c1ccc(F)cc1 : reported pIC50 = ?
Result: 5.41
